Consider the following compounds; for each one, report its IC50.
# TESTED SYSTEM: Ros1 enzyme (Homo sapiens, UniProt P08922)
# Construct: 0.5 μg/ml Ros1 enzyme
# Sequence (P08922 28-2347): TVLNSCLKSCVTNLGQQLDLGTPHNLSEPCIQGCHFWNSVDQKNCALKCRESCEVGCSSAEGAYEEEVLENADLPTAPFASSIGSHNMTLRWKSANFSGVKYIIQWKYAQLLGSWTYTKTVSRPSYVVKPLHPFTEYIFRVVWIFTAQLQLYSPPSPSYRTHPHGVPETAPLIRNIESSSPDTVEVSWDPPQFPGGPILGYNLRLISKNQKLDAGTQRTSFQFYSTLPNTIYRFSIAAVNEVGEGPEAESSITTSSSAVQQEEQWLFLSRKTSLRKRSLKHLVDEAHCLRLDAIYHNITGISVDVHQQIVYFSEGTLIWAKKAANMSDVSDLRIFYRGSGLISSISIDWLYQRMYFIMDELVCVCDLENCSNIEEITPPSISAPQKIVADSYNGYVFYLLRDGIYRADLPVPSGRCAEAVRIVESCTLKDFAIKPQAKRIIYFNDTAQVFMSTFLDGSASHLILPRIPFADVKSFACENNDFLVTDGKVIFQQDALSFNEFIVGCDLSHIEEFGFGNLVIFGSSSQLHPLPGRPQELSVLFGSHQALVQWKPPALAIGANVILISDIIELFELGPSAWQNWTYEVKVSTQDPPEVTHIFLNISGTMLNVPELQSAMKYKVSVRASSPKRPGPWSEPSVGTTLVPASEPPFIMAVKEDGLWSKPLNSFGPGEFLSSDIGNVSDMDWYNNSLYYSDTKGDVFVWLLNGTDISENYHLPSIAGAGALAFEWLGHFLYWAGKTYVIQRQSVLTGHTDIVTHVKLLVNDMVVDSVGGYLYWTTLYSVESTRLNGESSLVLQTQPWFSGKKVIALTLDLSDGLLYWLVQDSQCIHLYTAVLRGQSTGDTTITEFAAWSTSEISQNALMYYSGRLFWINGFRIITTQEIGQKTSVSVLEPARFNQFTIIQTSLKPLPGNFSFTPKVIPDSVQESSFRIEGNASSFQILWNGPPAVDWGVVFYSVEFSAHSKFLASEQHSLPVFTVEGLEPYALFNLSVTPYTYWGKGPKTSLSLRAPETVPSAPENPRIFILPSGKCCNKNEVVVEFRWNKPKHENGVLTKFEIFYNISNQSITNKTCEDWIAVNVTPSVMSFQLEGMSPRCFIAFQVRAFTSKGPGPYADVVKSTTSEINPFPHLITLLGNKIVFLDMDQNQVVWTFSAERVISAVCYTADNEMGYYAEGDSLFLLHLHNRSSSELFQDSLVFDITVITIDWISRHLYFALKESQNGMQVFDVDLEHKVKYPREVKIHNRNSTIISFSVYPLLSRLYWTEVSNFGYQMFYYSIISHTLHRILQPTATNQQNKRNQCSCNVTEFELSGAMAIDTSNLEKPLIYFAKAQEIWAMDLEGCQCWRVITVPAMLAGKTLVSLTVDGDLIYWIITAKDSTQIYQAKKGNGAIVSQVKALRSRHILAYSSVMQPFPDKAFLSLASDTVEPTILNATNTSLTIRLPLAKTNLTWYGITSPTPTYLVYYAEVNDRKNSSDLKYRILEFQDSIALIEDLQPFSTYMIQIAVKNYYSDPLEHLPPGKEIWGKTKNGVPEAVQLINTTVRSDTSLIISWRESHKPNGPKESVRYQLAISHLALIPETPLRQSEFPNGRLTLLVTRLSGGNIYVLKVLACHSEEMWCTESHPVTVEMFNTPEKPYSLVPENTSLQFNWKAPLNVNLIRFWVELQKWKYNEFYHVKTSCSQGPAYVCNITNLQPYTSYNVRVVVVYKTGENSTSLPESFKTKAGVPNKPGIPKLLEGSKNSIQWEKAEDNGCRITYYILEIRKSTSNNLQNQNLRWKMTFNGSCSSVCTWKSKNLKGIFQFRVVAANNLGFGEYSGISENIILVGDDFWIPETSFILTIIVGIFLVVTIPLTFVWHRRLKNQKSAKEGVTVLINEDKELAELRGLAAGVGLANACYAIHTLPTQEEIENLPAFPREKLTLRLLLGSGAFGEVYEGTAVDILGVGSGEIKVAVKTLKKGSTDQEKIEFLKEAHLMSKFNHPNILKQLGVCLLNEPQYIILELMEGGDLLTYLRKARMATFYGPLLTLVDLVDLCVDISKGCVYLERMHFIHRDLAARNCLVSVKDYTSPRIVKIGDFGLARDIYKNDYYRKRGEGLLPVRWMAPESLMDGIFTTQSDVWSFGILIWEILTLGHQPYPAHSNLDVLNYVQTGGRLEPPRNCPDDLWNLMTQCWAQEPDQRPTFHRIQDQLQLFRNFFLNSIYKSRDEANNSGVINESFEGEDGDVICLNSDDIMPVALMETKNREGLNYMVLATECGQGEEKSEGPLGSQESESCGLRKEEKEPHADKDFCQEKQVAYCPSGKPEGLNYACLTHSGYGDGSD
# ASSAY EXPLANATION: Ros1 enzymatic assay
# Assay type: biochemical
# STUDY CONDITIONS: Ros1 enzymatic assay; read-out: ROS1 pIC50 (converted)

>  <COMPOUND>
CC(C)c1ccc(COc2ccc(-c3c(-c4ccncc4)nn4c3C(=O)N(CCO)CC4)cn2)cc1 [Compound 212]

>  <IC50>
39.8 nM

$$$$
>  <COMPOUND>
CC1CNCc2c(-c3ccc(OCc4ccc(C5CC5)cc4)cc3)c(-c3ccncc3)nn21 (centres unmarked) [Compound 197]

>  <IC50>
794 nM

$$$$
>  <COMPOUND>
CC(C)c1ccc(COc2ccc(-c3c(-c4ccnc(CO)c4)nn4c3C(=O)NCC4)cc2)cc1 [Compound 233]

>  <IC50>
794 nM

$$$$
>  <COMPOUND>
CC(C)c1ccc(COc2ccc(-c3c(-c4ccncc4)nn4c3C(=O)N(CCO)CC4)c(F)c2)cc1CCO [Compound 205]

>  <IC50>
7.94 nM

$$$$
>  <COMPOUND>
COc1cccc(COc2ccc(-c3c(-c4ccncc4)nn4c3C(=O)NCC4)cc2)c1 [Compound 113]

>  <IC50>
794 nM

$$$$

Dear colleague, could you please provide IC50 for the compounds listed below?
1. O=C1NCCn2nc(-c3ccncn3)c(-c3ccc(OCc4ccc(C5CC5)nc4)cc3)c21 [Compound 168]
2. CC(C)c1ccc(COc2ccc(-c3c(-c4ccncc4)nn4c3C(=O)N(CCO)CC4)cc2)cn1 [Compound 81]
3. COC(=O)c1ccc(COc2ccc(-c3c(-c4ccncc4)nn4c3C(=O)NCC4)cc2)cc1 [Compound 9a]
4. Cc1cc(-c2c(-c3ccncc3)nn3c2C(=O)N(CCO)CC3)cc(C)c1OCc1ccc(C(C)C)cc1 [Compound 30]
5. CC(C)c1ccc(COc2ccc(-c3c(-c4ccncc4)nn4c3C(=O)N(CCO)CC4)c(C#N)c2)cc1 [Compound 28]
6. COc1cc(-c2c(-c3ccncc3)nn3c2C(=O)NCC3)cc(OC)c1OCc1ccc(C(C)C)cc1 [Compound 35]

### Response
["398 nM", "63.1 nM", "2510 nM", "> 10000 nM", "15.8 nM", "5010 nM"]

====

# TESTED SYSTEM: Ros1 enzyme (Homo sapiens)
# Construct: 0.5 μg/ml Ros1 enzyme
# ASSAY EXPLANATION: Ros1 enzymatic assay
# Assay type: biochemical
# STUDY CONDITIONS: Ros1 enzymatic assay; read-out: ROS1 pIC50 (converted)
Note to self: IC50 under 30 nM means 1, ties and anything higher get 0.

Study these solved cases before continuing.
>  <STRUCTURE STRING>
CC(C)c1ccc(COc2ccc(-c3c(-c4ccncn4)nn4c3CN(CCO)CC4)cc2)cc1

>  <TESTED SYSTEM>
Ros1 enzyme (Homo sapiens)

>  <ASSIGNED CATEGORY>
0

$$$$
>  <STRUCTURE STRING>
CC(C)c1ccc(COc2ccc(-c3c(-c4ccncc4)nn4c3C(=O)NCC4)c(F)c2)cc1

>  <TESTED SYSTEM>
Ros1 enzyme (Homo sapiens)

>  <ASSIGNED CATEGORY>
1

$$$$
>  <STRUCTURE STRING>
CC(C)c1ccc(COc2ccc(-c3c(-c4ncnc5[nH]ccc45)nn4c3C(=O)NCC4)cc2)cc1

>  <TESTED SYSTEM>
Ros1 enzyme (Homo sapiens)

>  <ASSIGNED CATEGORY>
0

$$$$

### Prompt For [2H]C([2H])(O)C([2H])([2H])N1CCn2nc(-c3ccncc3)c(-c3ccc(OCc4ccc(C(C)C)cc4)cc3)c2C1=O , is the recorded IC50 below the cut-off of 30 nM?
### Response 1

### Prompt For CC(C)c1ccc(COc2ccc(-c3c(-c4ccncc4)nn4c3CN(CCN)CC4)cc2)cc1 , is the recorded IC50 below the cut-off of 30 nM?
### Response 0

====

PROPERTY: melting point (°C)
Give bare numbers, in °C.

Completed entries (count: 4):
>  <MOLECULE>
CC(C)c1cc(F)c(COc2ccc(-c3c(-c4ccncc4)nn4c3C(=O)N(CCO)CC4)cc2)c(F)c1

>  <DISPLAY UNIT>
°C

>  <melting point>
194

$$$$
>  <MOLECULE>
CC(C)c1ccc(COc2ccc(-c3c(-c4ccncc4)nn4c3C(=O)N(C(C)C)CC4)cc2)cc1

>  <DISPLAY UNIT>
°C

>  <melting point>
168

$$$$
>  <MOLECULE>
CC(C)c1ccc(COc2ccc(-c3c(-c4ccncn4)nn4c3C(=O)N(CC(O)CO)CC4)cc2)cc1 (centres unmarked)

>  <DISPLAY UNIT>
°C

>  <melting point>
209

$$$$
>  <MOLECULE>
CC(C)c1ccc(COc2ccc(-c3c(-c4ccncc4)nn4c3C(=O)N(CC3CCCO3)CC4)cc2)cc1 (centres unmarked)

>  <DISPLAY UNIT>
°C

>  <melting point>
165

$$$$

Dear colleague, could you please provide melting point for the molecules listed below?
1. CC(C)c1ccc(COc2ccc(-c3c(-c4ccncc4)nn4c3C(=O)N(C(C)CO)CC4)cc2)cc1 (single isomer, unassigned)
2. O=C1c2c(-c3ccc(OCc4ccc(C5CC5)nc4)cc3)c(-c3ccncc3)nn2CCN1CCO
3. CC(C)Cc1ccc(COc2ccc(-c3c(-c4ccncc4)nn4c3C(=O)N(CCO)CC4)cc2)cc1
4. O=C1c2c(-c3ccc(OCc4ccc(C5CC5)cc4)cc3)c(-c3ccncn3)nn2CCN1CCO

### Response
1. 144
2. 97
3. 155
4. 170
